- assay_summary: small-molecule microarray binders of probe aShh, primary screen, biochemical, biotinylated probe, 635/667 nm fluorescence (AID 1114);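 also: probe is biotin-labelled aShh protein from a stem cell growth factor screen; measures binding of labelled protein to compounds printed on the slide; score merges feature fluorescence at 667 nm with signal-to-noise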
- cond: higher = more signal
Label 1 for high-side composite z-score (at or above 0.06) and 0 for low-side composite z-score (below it).

COc1cc(OC)c(C(O)C2C=CC3C(=O)N(c4ccccc4)C(=O)C3N2Nc2ccccc2F)cc1Br (configuration not stated) | 1
C=C(COC)C(=O)CC[C@@H](OC(C)=O)c1ccc(OCCO)cc1 | 0
CC(C)C[C@H]1NC(=O)[C@H](Cc2ccccc2)NC(=O)[C@@]23C(=O)N[C@@H](Cc4ccccc4)C2[C@H](C)[C@@]2(C)O[C@H]2C3/C=C/C/C=C\CNC1=O (some centres not stated) | 0
CO[C@H]1O[C@H](CO)[C@@H](OC(=O)Nc2ccc3c(c2)OCO3)[C@@H]2OC(=O)[C@@H](Cc3ccccc3)C/C=C/C[C@H](Cc3ccccc3)C(=O)O[C@@H]12 | 1
COCCn1c(C(=O)N2CCCC2)cc2c1C[C@H]1CN(C(=O)c3ccccc3)[C@@](Cc3ccccc3)(C(=O)OC)[C@@H]21 | 1
O=C1O[C@@H](c2ccccc2)[C@@H](c2ccccc2)N2[C@@H](c3ccc(OCCO)cc3)[C@]3(C(=O)Nc4ccc(C#CCCO)cc43)[C@@H](C(=O)Nc3nc4ccccc4s3)[C@H]12 | 1

Here is the next item to consider.
Ask: Given the entry COCCOC(=O)N1C(=O)[C@@]2(c3ccccc31)[C@H](C(=O)N1CCCCCCC1)[C@H]1C(=O)O[C@H](c3ccccc3)[C@H](c3ccccc3)N1[C@@H]2c1ccc(O)cc1 , answer whether its composite z-score meets or surpasses 0.06.
Result: 1
